- Test system: HT29 colon
- measurement-description: NCI-60 one-dose screen, 48 h
- experimental-parameters: 10 µM unless noted
This is part of a sample that, as a whole, favours compounds with a hit. Of some 83,000 tested, about 20% had one in any assay. Activity calls are given as the source filed them. Rule for the calls: active = growth percent below 10; inactive = the rest.
Choose the fitting class; nothing outside yes for active, no for inactive is accepted.

Below, 4 molecules whose answers are already recorded.
{"columns": ["molecule", "group"],
 "data": [
  ["O=c1c2c(=NCCCN3CCCC3)cc3c(=O)n(CCCN4CCCC4)c(=O)c4c(NCCCN5CCCC5)cc(c(O)n1CCCN1CCCC1)c2c4-3", "yes"],
  ["OC(c1ccccc1)C(NCc1ccccc1)c1ccccc1 (stereo not given)", "no"],
  ["C[C@]12CCC(=O)C=C1CC[C@H]1[C@@H]3C[C@@H](O)[C@](O)(C(=O)CO)[C@@]3(C)C[C@H](O)[C@@]12F", "no"],
  ["NS(=O)(=O)c1ccc(N2CC(c3nc4ccccc4[nH]3)CC2=O)cc1 (stereo not given)", "no"]
]}

Shift focus to the following entry.
Task: Called result for CCCCCN(CCCCC)CCCNc1c2c(nc3ccc(Cl)cc13)CCCC2
Result: yes

====

- System: PC-3 prostate
- measurement-description: NCI-60 one-dose screen, 48 h (100 = growth as untreated, 0 = no growth, -100 = all killed)
- experimental-parameters: 10 µM unless noted
Compounds without any hit were thinned out: in the full panel of roughly 83,000, 20% have a hit. Calls of active or inactive are those of the source. The calls were made as follows: active = growth percent below 10; inactive = the rest.
Below, each of the molecules is paired with its reported growth value.

Example results:
{"columns": ["molecule", "system-under-test", "value-measured"],
 "data": [
  ["N#Cc1c(-c2ccccc2)cc(-c2ccccc2)n(CCCCC(=O)O)c1=O", "PC-3 prostate", "93.1% (inactive)"],
  ["Cc1ccc(-c2csc(N)n2)cc1", "PC-3 prostate", "91.2% (inactive)"],
  ["CC(=O)Nc1cc2c3c(cccc3c1)-c1ccccc1-2", "PC-3 prostate", "57.9% (inactive)"]
]}

Task: Can you share its growth? I mean this molecule: COc1cnc2c(c1)C(=O)c1c-2n(CCCNC2=NCCS2)c(=O)c2cc(F)ccc12
Result: 36.9% (inactive)

Task: Entry O=C(/C=C/c1c(-c2ccccc2)[nH]c2ccccc12)S(=O)(=O)c1ccccc1 please
Result: 36.5% (inactive)

Task: Entry COc1ccc2nc(-c3ccc(Cl)cc3)cc(-c3nnc(SCC(=O)Nc4ccc(C(C)=O)cc4)n3-c3ccccc3)c2c1 please
Result: 87.3% (inactive)

Task: Entry O=C1Nc2ccc(C(=O)O)c(O)c2C1=O please
Result: 95.7% (inactive)

Task: Entry CCOC(=O)CNC(=O)C1(NC(=O)CNC(=O)OCc2ccccc2)CCCC1 please
Result: 98.7% (inactive)

Task: Entry CC1CN(/N=C/c2ccc([N+](=O)[O-])o2)C(=N)O1 (stereo not given) please
Result: 89.5% (inactive)

Task: Entry COc1ccc(CNC(=O)c2c(C)n([O-])c3ccccc3[n+]2=O)cc1 please
Result: 86.3% (inactive)

====

- System: KM12 colon
- measurement-description: NCI-60 one-dose screen, 48 h (100 = growth as untreated, 0 = no growth, -100 = all killed)
- experimental-parameters: 10 µM unless noted
Compounds without any hit were thinned out: in the full panel of roughly 83,000, 20% have a hit.
measured-attribute: growth (%)
# output: bare number, implied unit %

{"columns": ["compound", "growth [%]"],
 "data": [
  ["CN(C)CCCN=c1cc2c(=O)n(CCCN(C)C)c(=O)c3c(NCCCN(C)C)cc4c(O)n(CCCN(C)C)c(=O)c1c4c3-2", 3.01],
  ["CSc1nc2nc3c(c(-c4ccc(C)cc4)c2c(=O)[nH]1)CN(C)C/C3=C\\c1ccc(C)cc1", 101],
  ["Cc1ccc(OCC(=O)Nc2ccc(Oc3ccccc3)cc2)c([N+](=O)[O-])n1", 93.8]
]}

Task: Can you share its growth? I mean this compound: O=C(Nc1nn2c(-c3cc(C(F)(F)F)cc(C(F)(F)F)c3)nnc2s1)C1CCCC1
Result: 11.1

Task: Entry Clc1ccc2nc(CI)c(CI)nc2c1 please
Result: 101

Task: Entry CC1Cc2ccccc2N1C(=O)c1ccc(C(=O)c2ccccc2)cc1 (centres undefined) please
Result: 101

Task: Entry Cc1cc(C)c2c(N)c3cccc(C)c3nc2n1 please
Result: 6.37

Task: Entry O=C(N/N=C/c1cccc([N+](=O)[O-])c1)c1ccc(Br)o1 please
Result: 109

Task: Entry N#Cc1c(NC(=O)c2ccco2)[n+]([O-])c2cc(Cl)c(Cl)cc2[n+]1[O-] please
Result: 131

Task: Entry Cc1ccccc1NC(=O)N/C(N)=N/c1nc2ccccc2s1 please
Result: 14.9

====

- System: SW-620 colon
- measurement-description: NCI-60 one-dose screen, 48 h
- experimental-parameters: 10 µM unless noted
About 83,000 compounds went through this panel and 20% of them were active in at least one assay; those are over-represented in the sample as a whole. Activity calls are given as the source filed them. How the source made its calls: active means growth percent below 10; inactive means the rest.
Choose the fitting class; nothing outside YES = active, NO = inactive is accepted.

Below, 10 molecules whose answers are already recorded.
{"columns": ["molecule", "group"],
 "data": [
  ["Nc1nc2c(nnn2Cc2ccc(Cl)c(Cl)c2)c(=O)[nH]1", "NO"],
  ["Cc1sc2nc(NCCc3cccs3)[nH]c(=O)c2c1C", "NO"],
  ["c1ccc(-c2nc(Nc3nccnn3)c3ccccc3n2)cc1", "NO"],
  ["CN(C)c1ccc(-n2nc3ccccc3n2)cc1", "NO"],
  ["Nc1c(C(=O)Nc2cccc(Cl)c2)sc2nc3c(cc12)C(O)CCC3 (stereo unspecified)", "NO"],
  ["CC(C)Sc1nc(-c2ccc(Br)cc2)c(C#N)c(N2CCCCC2)n1", "NO"],
  ["CCSc1ncc(Br)c(Sc2nc(N)nc3nc[nH]c23)n1", "NO"],
  ["CCOC(=O)OCC(=O)[C@@]1(O)CC[C@H]2[C@@H]3CCC4=CC(=O)CC[C@]4(C)[C@H]3[C@@H](O)C[C@@]21C", "NO"],
  ["COc1cccc2c1C(=O)c1c(O)c3c(c(O)c1C2=O)C[C@@](O)(C(C)=O)C[C@@H]3O[C@H]1C[C@H](N)[C@H](O)[C@H](C)O1", "YES"],
  ["CCN1CCN(c2nc(NNC(=O)Cc3ccccc3)nc(N3CCN(C(c4ccccc4)c4ccccc4)CC3)n2)CC1", "NO"]
]}

Task: Called result for CCOc1cc(CCNS(=O)(=O)c2ccc(C)cc2)c(C(C)=O)cc1OCC
Result: NO

Task: Entry CC(=O)N1N=C(c2ccc(Nc3nc(NCCO)nc(NCCO)n3)cc2)CC1c1ccc(Cl)cc1 (stereo unspecified) please
Result: NO

Task: Entry CCOC(=O)c1cnc2c(C)cc(C)cc2c1NCCCN(C)C please
Result: NO

Task: Entry COc1cccc(N2CCN(CC(=O)N3CCN(c4nnc(-c5ccc(Cl)cc5)c(-c5ccc(Cl)cc5)n4)CC3)CC2)c1 please
Result: NO

Task: Entry COc1ccc(C2=NN(C(C)=O)C(c3cccc(Nc4ccnc5cc(Cl)ccc45)c3)C2)cc1 (stereo unspecified) please
Result: NO

Task: Entry O=C(Nc1cccc(-n2cc(-c3ccncc3)c(-c3cc(O)cc(Cl)c3)n2)c1)Nc1ccc(Cl)c(Cl)c1 please
Result: YES

Task: Entry CC1(C)CC2(C)CC(=O)C1C(C(=O)O)C2C(=O)O (stereo unspecified) please
Result: NO

Task: Entry Cc1ccc(-c2c3c(N)nc(-c4ccncc4)nc3nc3c2c(C)nn3-c2ccccc2)cc1 please
Result: NO

Task: Entry CCCCCCCCCCOC(C)=O please
Result: NO

Task: Entry O=C(NN1C(=O)c2cc(C(=O)O)c(C(=O)O)cc2C1=O)c1ccncc1 please
Result: NO

Task: Entry C(=C1c2ccccc2-c2ccccc21)c1ccccn1 please
Result: NO

====

Below, each of the compounds is paired with its reported growth value.
- Tested on: HT29 colon
- measurement-description: NCI-60 one-dose screen, 48 h (100 = growth as untreated, 0 = no growth, -100 = all killed)
- experimental-parameters: 10 µM unless noted
The panel holds about 83,000 compounds, 20% with a hit somewhere; the sample as a whole holds those more often. Calls of active or inactive are those of the source. How the source made its calls: active means growth percent below 10; inactive means the rest.

Example results:
{"columns": ["compound", "growth"],
 "data": [
  ["O=C(/C=C/c1cccc(O)c1)c1cccc(-n2cc(-c3ccccc3)[nH]c2=O)c1", "9.73% (active)"],
  ["COc1cc(/C=C2\\CN(C)CC3=C2Nc2nc(SC)[nH]c(=O)c2C3c2cc(OC)c(OC)c(OC)c2)cc(OC)c1OC (configuration not stated)", "15% (inactive)"],
  ["CCOC1Oc2ccccc2C(=O)/C1=N/c1nccs1 (configuration not stated)", "105% (inactive)"],
  ["COC(=O)[C@H]1[C@H]2C[C@@H]3c4[nH]c5cc(OC)ccc5c4CCN3C[C@H]2C[C@@H](OC(=O)/C=C/c2cc(OC)c(OC)c(OC)c2)[C@@H]1OC", "-66.1% (active)"]
]}

Task: Can you share its growth? I mean this compound: C/C=C(/C(=C/C)c1ccc(O)cc1)c1ccc(O)cc1
Result: 38.6% (inactive)

Task: Entry COc1cnc2c(c1)C(=O)c1c-2n(CCCn2ccnc2)c(=O)c2cc(F)ccc12 please
Result: -16.2% (active)

Task: Entry C[C@H]1O[C@@H](O[C@H]2[C@@H](O)C[C@H](O[C@H]3[C@@H](O)C[C@H](O[C@H]4CC[C@]5(C)C6CC[C@]7(C)[C@@H](C8=CC(=O)OC8)CC[C@]7(O)C6CC[C@@H]5C4)O[C@@H]3C)O[C@@H]2C)C[C@H](O)[C@@H]1O (some centres not stated) please
Result: -89.8% (active)
